target: Tyrosine-protein kinase ABL1 (Homo sapiens) (UniProt P00519); conditions: at 0.1 µM
Sequence (P00519 whole entry): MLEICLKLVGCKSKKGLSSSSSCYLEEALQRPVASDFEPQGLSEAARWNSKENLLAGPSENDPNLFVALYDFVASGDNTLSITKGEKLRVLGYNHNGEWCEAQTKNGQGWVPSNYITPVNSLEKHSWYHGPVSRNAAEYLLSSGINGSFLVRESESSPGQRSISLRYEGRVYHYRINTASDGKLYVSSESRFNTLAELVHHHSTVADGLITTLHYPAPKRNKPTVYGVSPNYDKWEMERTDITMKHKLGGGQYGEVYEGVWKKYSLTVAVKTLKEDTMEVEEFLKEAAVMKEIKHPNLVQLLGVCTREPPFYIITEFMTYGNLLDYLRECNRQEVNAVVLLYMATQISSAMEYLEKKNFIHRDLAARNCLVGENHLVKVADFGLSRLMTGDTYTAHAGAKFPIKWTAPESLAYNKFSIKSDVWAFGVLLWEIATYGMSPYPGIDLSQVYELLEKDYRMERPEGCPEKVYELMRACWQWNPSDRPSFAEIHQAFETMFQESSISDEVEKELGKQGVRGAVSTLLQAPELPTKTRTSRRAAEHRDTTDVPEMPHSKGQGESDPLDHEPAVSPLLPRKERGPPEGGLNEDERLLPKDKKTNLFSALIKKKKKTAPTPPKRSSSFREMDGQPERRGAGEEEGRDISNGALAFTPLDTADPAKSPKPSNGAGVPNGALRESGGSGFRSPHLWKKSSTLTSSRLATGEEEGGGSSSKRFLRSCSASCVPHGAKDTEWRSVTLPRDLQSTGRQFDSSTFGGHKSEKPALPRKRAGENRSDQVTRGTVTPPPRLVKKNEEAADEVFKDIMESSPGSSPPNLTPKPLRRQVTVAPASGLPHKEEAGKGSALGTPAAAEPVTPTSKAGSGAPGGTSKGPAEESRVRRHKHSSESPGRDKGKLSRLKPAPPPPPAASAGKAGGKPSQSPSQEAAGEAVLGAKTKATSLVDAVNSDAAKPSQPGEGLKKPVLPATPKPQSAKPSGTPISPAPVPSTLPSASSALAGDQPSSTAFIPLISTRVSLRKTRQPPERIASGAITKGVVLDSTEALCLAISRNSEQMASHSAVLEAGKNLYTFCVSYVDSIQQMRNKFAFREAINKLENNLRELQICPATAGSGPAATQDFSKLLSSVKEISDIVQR
Description: GSK_PKIS: ABL1 mean inhibition at 0.1 uM [Nanosyn]
MEASUREMENT KIND: inhibition
Give the value; after it, write the unit.

Could you share which inhibition value was measured for COc1cc2ncn(-c3cc(O[C@@H](C)c4ccccc4Cl)c(C(N)=O)s3)c2cc1OC ?
7.09%

Could you share which inhibition value was measured for COc1ccc(-c2coc3ncnc(N)c23)cc1 ?
3.7%

Could you share which inhibition value was measured for Cc1cccc(-c2n[nH]cc2-c2ccc3ncccc3n2)n1 ?
5.29%

Could you share which inhibition value was measured for CNC(=O)c1cncc(/C=C/c2c(Cl)cccc2Cl)c1 ?
8.37%

Could you share which inhibition value was measured for CC(C)=Cc1cccc2c1/C(=N/Nc1ccc(S(N)(=O)=O)cc1)C(=O)N2 ?
2.44%

Could you share which inhibition value was measured for CCn1c(-c2nonc2N)nc2cncc(C(=O)N3CC[C@H](N)C3)c21 ?
4.28%

Could you share which inhibition value was measured for CCN1CCC(CC(=O)Nc2n[nH]c3nc(-c4cccs4)c(Br)cc23)CC1 ?
2.56%

Could you share which inhibition value was measured for N#Cc1c(NC(=O)c2cccc3ccccc23)sc2c1CCCC2 ?
2.91%

Could you share which inhibition value was measured for COc1ccc(-c2nn3ncccc3c2-c2ccnc(Nc3ccc(Cl)c(C(F)(F)F)c3)n2)cc1 ?
2.26%

Could you share which inhibition value was measured for Cc1ccc(C(=O)NC2CCCCC2)cc1-c1ccc(C(=O)NCC2CC2)cc1 ?
4.64%

* * *

biological target: Serine/threonine-protein kinase MRCK beta (Homo sapiens) (UniProt Q9Y5S2); conditions: at 0.1 µM;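 further: values are mean percent inhibition of MRCKB, screened as part of the GSK PKIS kinase inhibitor set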
Sequence (Q9Y5S2 whole entry): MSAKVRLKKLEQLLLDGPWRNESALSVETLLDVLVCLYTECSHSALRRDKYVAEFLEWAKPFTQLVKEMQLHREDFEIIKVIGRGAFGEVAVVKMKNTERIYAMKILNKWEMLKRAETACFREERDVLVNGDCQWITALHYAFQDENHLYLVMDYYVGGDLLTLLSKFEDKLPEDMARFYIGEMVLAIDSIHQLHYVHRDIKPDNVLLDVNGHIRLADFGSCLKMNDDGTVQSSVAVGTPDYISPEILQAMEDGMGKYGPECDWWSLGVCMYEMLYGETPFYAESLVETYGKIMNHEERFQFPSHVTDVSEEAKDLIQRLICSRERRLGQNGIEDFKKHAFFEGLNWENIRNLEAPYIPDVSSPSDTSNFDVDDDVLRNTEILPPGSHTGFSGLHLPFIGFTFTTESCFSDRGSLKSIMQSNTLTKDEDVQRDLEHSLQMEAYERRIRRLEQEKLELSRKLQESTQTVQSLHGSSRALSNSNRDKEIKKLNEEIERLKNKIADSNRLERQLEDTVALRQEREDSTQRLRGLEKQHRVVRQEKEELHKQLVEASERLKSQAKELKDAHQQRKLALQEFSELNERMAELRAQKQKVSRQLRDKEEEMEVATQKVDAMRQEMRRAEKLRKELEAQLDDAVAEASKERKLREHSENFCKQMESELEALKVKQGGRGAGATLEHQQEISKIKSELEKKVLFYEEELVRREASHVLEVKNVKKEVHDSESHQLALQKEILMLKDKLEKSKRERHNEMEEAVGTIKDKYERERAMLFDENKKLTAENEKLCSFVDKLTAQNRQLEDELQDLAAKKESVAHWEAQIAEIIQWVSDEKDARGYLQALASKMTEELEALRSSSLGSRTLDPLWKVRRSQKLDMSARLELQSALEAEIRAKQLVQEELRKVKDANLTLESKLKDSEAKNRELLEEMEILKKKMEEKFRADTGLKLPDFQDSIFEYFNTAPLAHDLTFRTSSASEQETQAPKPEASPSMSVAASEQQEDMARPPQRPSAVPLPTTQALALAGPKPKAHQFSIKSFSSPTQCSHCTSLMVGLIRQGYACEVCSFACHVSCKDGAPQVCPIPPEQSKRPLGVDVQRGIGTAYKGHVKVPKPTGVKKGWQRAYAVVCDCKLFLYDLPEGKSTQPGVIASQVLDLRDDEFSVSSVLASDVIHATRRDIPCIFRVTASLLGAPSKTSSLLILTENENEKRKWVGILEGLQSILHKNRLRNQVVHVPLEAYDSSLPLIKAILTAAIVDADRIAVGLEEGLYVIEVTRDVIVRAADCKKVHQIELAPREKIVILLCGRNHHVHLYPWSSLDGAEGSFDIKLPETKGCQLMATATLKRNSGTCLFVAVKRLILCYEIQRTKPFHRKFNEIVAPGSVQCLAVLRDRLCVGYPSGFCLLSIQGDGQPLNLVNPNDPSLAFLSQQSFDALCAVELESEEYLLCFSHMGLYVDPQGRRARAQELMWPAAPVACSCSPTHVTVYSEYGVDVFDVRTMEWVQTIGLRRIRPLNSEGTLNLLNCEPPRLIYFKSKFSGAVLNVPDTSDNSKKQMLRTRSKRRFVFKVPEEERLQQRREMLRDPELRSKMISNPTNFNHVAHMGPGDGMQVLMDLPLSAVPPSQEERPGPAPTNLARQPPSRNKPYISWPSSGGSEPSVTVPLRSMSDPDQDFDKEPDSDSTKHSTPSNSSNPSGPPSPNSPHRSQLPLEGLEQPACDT
MEASUREMENT KIND: inhibition (%)
Field: numeric (%). Do not append units.

Could you share which inhibition value was measured for CCn1c(-c2nonc2N)nc2c(N3CCCC3)nccc21 ?
-0.1

Could you share which inhibition value was measured for CCn1c(-c2nonc2N)nc2c(C#CC(C)(C)O)nc(OC[C@@H](N)c3ccccc3)cc21 ?
11.1

Could you share which inhibition value was measured for Cc1nnc(-c2ccc(C)c(-c3ccc(C(=O)Nc4cccc(C#N)c4)cc3)c2)o1 ?
-0.92

Could you share which inhibition value was measured for CCn1c(-c2nonc2N)nc2ccncc21 ?
0.86

Could you share which inhibition value was measured for NC(=O)c1ccc(-c2nc(-c3ccccn3)c(-c3ccc4c(c3)OCO4)[nH]2)cc1 ?
1.08

* * *

biological target: Inhibitor of nuclear factor kappa-B kinase subunit alpha (Homo sapiens); conditions: at 0.1 µM;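 further: mean percent inhibition from GSK PKIS profiling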
Give measured inhibition for each item. Keep answers brief.
Give the value; after it, write the unit.

Could you share which inhibition value was measured for CS(=O)(=O)CCN(CC#N)Cc1ccc(-c2ccc3ncnc(Nc4ccc(OCc5cccc(F)c5)c(Cl)c4)c3c2)o1 ?
4.16%

Could you share which inhibition value was measured for CS(=O)(=O)CCNCc1ccc(-c2ccc3ncnc(Nc4ccc(OCc5cccc(F)c5)c(C(F)(F)F)c4)c3c2)o1 ?
7.6%

Could you share which inhibition value was measured for COc1cccc(-n2ncc3c(N/N=C/c4cccc(F)c4)ncnc32)c1 ?
-0.08%

Could you share which inhibition value was measured for O=C1NC(=O)C(N2CCc3ccccc32)=C1c1ccc(Cl)cc1 ?
5.45%

Could you share which inhibition value was measured for Nc1ncnc2occ(-c3ccc(NC(=O)Nc4cccc(C(F)(F)F)c4)cc3)c12 ?
6.44%

Could you share which inhibition value was measured for COc1cc2ncn(-c3cc(O[C@H](C)c4ccccc4Cl)c(C(N)=O)s3)c2cc1OC ?
6.13%

Could you share which inhibition value was measured for [O-][S+]1CCN(Cc2ccc(-c3ccc4ncnc(Nc5ccc(OCc6ccccc6)c(F)c5)c4c3)o2)CC1 ?
1.7%

Could you share which inhibition value was measured for Cc1cc(O)cc(C)c1/C=C/c1cncc(-c2nn[nH]n2)c1 ?
4.82%

Could you share which inhibition value was measured for COc1ccc(COc2ccc(Cc3cnc(N)nc3N)cc2OC)cc1 ?
2.25%

Could you share which inhibition value was measured for Fc1cccc(COc2ccc(Nc3ncnc4cc(-c5ccc[nH]5)sc34)cc2Cl)c1 ?
2.16%

Could you share which inhibition value was measured for Nc1ncnc2occ(-c3ccc(NC(=O)Nc4cc(C(F)(F)F)cc(C(F)(F)F)c4)cc3)c12 ?
-5.23%

Could you share which inhibition value was measured for COc1cc2c(cc1Nc1nc(N3CCc4ccccc43)c3cc[nH]c3n1)N(C(=O)CN(C)C)CC2 ?
2.9%

Could you share which inhibition value was measured for COc1ccc(-c2ccncc2)cc1C(N)=O ?
2.55%

Could you share which inhibition value was measured for CS(=O)(=O)CCNCc1nc(-c2ccc3ncnc(Nc4ccc(F)c(Cl)c4)c3c2)cs1 ?
-4.65%

Could you share which inhibition value was measured for Cn1cc(C=C2C(=O)Nc3cccnc32)c2ccccc21 ?
5.69%

Could you share which inhibition value was measured for CNC(=O)c1cncc(/C=C/c2c(Cl)cccc2Cl)c1 ?
1.91%

Could you share which inhibition value was measured for COc1cc(C)c(NC(=O)CN(C)C)cc1Nc1nc(Nc2cccc(F)c2C(N)=O)c2cc[nH]c2n1 ?
0.92%

Could you share which inhibition value was measured for CCn1c(-c2nonc2N)nc2cncc(C(=O)N3CCNCC3)c21 ?
1.05%

Could you share which inhibition value was measured for N#Cc1c(NC(=O)c2cccc3ccccc23)sc2c1CCCC2 ?
5.48%

Could you share which inhibition value was measured for NS(=O)(=O)c1ccc(N/N=C2\C(=O)Nc3ccc(C(=O)NCCc4c[nH]cn4)cc32)cc1 ?
10.2%

* * *

Give measured inhibition for each item. Keep answers brief.
target: Rhodopsin kinase GRK7 (Homo sapiens) (UniProt Q8WTQ7); conditions: at 0.1 µM;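 further: reported figures are mean percent inhibition of GRK7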
Field: numeric (%). Do not append units.

Item O=C1NC(=O)C(c2ccc(Cl)cc2)=C1Nc1ccc(Cl)c(C(=O)O)c1 with Rhodopsin kinase GRK7 (Homo sapiens) (UniProt Q8WTQ7) - inhibition?
-5.23

Item COC(=O)Nc1nc2cc(Oc3cccc(NC(=O)Nc4cc(C(F)(F)F)ccc4F)c3)ccc2[nH]1 with Rhodopsin kinase GRK7 (Homo sapiens) (UniProt Q8WTQ7) - inhibition?
-2.92

Item COc1cc2ncn(-c3cc(O[C@@H](C)c4ccccc4Cl)c(C(N)=O)s3)c2cc1OC with Rhodopsin kinase GRK7 (Homo sapiens) (UniProt Q8WTQ7) - inhibition?
9.14

Item CS(=O)(=O)CCNCc1ccc(-c2ccc3ncnc(Nc4ccc(OCc5cccc(F)c5)c(C(F)(F)F)c4)c3c2)o1 with Rhodopsin kinase GRK7 (Homo sapiens) (UniProt Q8WTQ7) - inhibition?
3.55

Item O=C1NC(=O)C(c2cccc(Cl)c2)=C1Nc1ccc(O)c(Cl)c1 with Rhodopsin kinase GRK7 (Homo sapiens) (UniProt Q8WTQ7) - inhibition?
0.66

* * *

Give measured inhibition for each item. Keep answers brief.
biological target: Serine/threonine-protein kinase Nek7 (Homo sapiens); conditions: at 1 µM;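 further: reported values are mean inhibition of NEK7 from the GSK PKIS kinase screening panel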
Field: numeric (%). Do not append units.

Could you share which inhibition value was measured for c1cnn2ncc(-c3ccnc(Nc4ccc5c(c4)OCCO5)n3)c2c1 ?
6.49

Could you share which inhibition value was measured for CS(=O)(=O)CCNCc1nc(-c2ccc3ncnc(Nc4ccc(F)c(Cl)c4)c3c2)cs1 ?
1.7

Could you share which inhibition value was measured for CC1=C(C(=O)Nc2ccc3[nH]ncc3c2)C(c2ccc3ccccc3c2)CC(=O)N1 (centres undefined) ?
1.79

Could you share which inhibition value was measured for COc1cc2ncn(-c3cc(O[C@H](C)c4ccccc4Cl)c(C(N)=O)s3)c2cc1OC ?
4.26

Could you share which inhibition value was measured for Nc1nc(-c2ccc3c(c2)C(=Cc2cc(Br)c(O)c(Br)c2)C(=O)N3)cs1 ?
-1.46

Could you share which inhibition value was measured for CS(=O)(=O)CCNCc1ccc(-c2ccc3ncnc(Nc4ccc(OCc5cccc(F)c5)c(C(F)(F)F)c4)c3c2)o1 ?
4.32

Could you share which inhibition value was measured for COC(=O)Nc1nc2cc(Oc3cccc(NC(=O)Nc4cc(C(F)(F)F)ccc4F)c3)ccc2[nH]1 ?
1.59

Could you share which inhibition value was measured for CC1=C(C(=O)Nc2ccc3[nH]ncc3c2)C(c2ccc(Cl)c(Cl)c2)CC(=O)N1 (centres undefined) ?
3.79

Could you share which inhibition value was measured for Fc1cccc(COc2ccc(Nc3ncnc4sc(-c5cccs5)cc34)cc2Cl)c1 ?
5.03

* * *

molecular target: Phosphatidylinositol 4-kinase beta (Homo sapiens) (UniProt Q9UBF8); settings: at 1 µM;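 further: values are mean percent inhibition of PI4K-beta activity, averaged over replicate measurements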
Sequence (Q9UBF8 2-816 limits assumed): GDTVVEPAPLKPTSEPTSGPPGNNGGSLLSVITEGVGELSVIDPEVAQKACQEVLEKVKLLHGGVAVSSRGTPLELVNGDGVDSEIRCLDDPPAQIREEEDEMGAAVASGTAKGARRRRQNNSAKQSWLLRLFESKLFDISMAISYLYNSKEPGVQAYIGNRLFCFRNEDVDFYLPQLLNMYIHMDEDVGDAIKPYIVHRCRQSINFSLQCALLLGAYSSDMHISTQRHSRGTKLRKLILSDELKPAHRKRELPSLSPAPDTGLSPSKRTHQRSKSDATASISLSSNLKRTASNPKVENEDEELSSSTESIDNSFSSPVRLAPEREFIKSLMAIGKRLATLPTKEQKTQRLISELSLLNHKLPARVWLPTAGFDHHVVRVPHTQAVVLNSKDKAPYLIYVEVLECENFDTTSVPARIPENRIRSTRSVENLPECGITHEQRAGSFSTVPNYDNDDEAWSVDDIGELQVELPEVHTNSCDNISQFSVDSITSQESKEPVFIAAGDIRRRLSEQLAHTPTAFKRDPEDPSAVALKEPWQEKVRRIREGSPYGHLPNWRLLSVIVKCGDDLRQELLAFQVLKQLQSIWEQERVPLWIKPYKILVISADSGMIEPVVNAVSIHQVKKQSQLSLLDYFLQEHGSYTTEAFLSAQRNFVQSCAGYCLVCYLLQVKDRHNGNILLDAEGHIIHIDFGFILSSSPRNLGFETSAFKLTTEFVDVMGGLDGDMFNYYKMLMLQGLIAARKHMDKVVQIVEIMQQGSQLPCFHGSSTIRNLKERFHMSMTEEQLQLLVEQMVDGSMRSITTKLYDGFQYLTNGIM
Give measured inhibition for each item. Keep answers brief.
Give the value; after it, write the unit.

Could you share which inhibition value was measured for CCn1c(-c2nonc2N)nc2c(C#CC(C)(C)O)nc(OC[C@@H](N)c3ccccc3)cc21 ?
2.95%

Could you share which inhibition value was measured for NCc1ccc(-c2nc(-c3ccc(Cl)c(O)c3)c(-c3ccncc3)[nH]2)cc1 ?
-2.79%

Could you share which inhibition value was measured for COc1ccc(-c2coc3ncnc(N)c23)cc1 ?
-0.74%

Could you share which inhibition value was measured for NS(=O)(=O)c1ccc(N/N=C2\C(=O)Nc3ccc(C(=O)NCCc4c[nH]cn4)cc32)cc1 ?
-1.44%

* * *

target: Receptor-type tyrosine-protein kinase FLT3 (Homo sapiens) (UniProt P36888); settings: at 1 µM;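 further: values are mean percent inhibition of FLT3 kinase activity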
Sequence (P36888 whole entry): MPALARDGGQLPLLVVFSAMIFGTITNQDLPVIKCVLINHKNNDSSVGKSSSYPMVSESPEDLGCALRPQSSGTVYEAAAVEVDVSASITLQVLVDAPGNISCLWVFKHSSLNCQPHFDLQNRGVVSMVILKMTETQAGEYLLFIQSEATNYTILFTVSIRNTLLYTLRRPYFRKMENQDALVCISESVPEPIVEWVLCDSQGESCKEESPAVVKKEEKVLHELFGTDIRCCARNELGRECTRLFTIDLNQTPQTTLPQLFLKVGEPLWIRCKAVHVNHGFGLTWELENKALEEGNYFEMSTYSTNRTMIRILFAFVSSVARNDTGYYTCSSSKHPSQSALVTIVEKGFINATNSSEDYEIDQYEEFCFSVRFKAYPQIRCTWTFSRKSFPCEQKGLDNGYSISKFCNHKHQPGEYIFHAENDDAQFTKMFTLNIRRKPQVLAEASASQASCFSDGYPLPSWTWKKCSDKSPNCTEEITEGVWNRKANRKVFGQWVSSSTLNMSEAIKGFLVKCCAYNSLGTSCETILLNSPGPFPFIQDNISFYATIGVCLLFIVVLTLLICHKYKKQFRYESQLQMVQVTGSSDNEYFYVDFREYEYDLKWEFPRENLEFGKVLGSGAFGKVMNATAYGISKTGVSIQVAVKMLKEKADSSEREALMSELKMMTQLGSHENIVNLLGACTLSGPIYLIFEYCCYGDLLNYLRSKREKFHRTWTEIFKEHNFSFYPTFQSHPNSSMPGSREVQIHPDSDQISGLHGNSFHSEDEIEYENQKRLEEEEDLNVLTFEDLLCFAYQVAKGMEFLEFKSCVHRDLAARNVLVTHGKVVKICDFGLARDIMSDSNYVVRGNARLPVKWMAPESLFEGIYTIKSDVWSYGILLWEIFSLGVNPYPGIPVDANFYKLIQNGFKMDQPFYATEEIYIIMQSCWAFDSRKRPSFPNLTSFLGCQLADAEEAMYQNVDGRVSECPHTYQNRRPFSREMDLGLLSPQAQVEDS
Give measured inhibition for each item. Keep answers brief.
Field: numeric (%). Do not append units.

Could you share which inhibition value was measured for CCn1c(-c2nonc2N)nc2cncc(C(=O)N3CCNCC3)c21 ?
4.6

Could you share which inhibition value was measured for COC(=O)Nc1nc2cc(Oc3cccc(NC(=O)Nc4cc(C(F)(F)F)ccc4F)c3)ccc2[nH]1 ?
3.93

Could you share which inhibition value was measured for CC1=C(C(=O)Nc2ccc3[nH]ncc3c2)C(c2ccc(Cl)c(Cl)c2)CC(=O)N1 (stereo not given) ?
1.54

Could you share which inhibition value was measured for CCn1c(-c2nonc2N)nc2c(C#CC(C)(C)O)nc(CN3CCCC3)cc21 ?
-0.42

Could you share which inhibition value was measured for O=C1Nc2ccc(C(=O)c3ccco3)cc2C1=Cc1cc(Cl)c(O)c(Cl)c1 ?
12.7

Could you share which inhibition value was measured for O=C1NC(=O)C(c2ccccc2Cl)=C1Nc1cccc(O)c1 ?
2.8

Could you share which inhibition value was measured for COc1cc2ncn(-c3cc(OCc4ccccc4C(F)(F)F)c(C(N)=O)s3)c2cc1OC ?
9.95

Could you share which inhibition value was measured for O=C1NC(=O)C(c2ccc(Cl)cc2)=C1Nc1ccc(Cl)c(C(=O)O)c1 ?
1.93

Could you share which inhibition value was measured for COc1cc2ncn(-c3cc(OCc4ccccc4Cl)c(C(N)=O)s3)c2cc1OC ?
3.62

Could you share which inhibition value was measured for Cc1nnc(-c2ccc(C)c(-c3ccc(C(=O)Nc4cccc(C#N)c4)cc3)c2)o1 ?
1.58

Values from ChEMBL document CHEMBL1961873
